tested on: CMK; design: species or system AML cell lines (8); Primary HTS, single concentration about 10 uM, Cell Titer Glo viability; log10 luminescence, per cent inhibition relative to cycloheximide control; details: 72 h, relative to cycloheximide control, log10 luminescence; inhibitor
outcome.measure: CMK %inh (%)
Unit % implied. Number only.

Task: Which CMK %inh value is on record for CS(=O)(=O)CCNCc1ccc(-c2ccc3ncnc(Nc4ccc(OCc5cccc(F)c5)c(C(F)(F)F)c4)c3c2)o1 [SJ000573152-1, U14859/108/1] ?
Output: -0.9918

Task: Which CMK %inh value is on record for Cn1cc(C=C2C(=O)Nc3cccnc32)c2ccccc21 [SJ000573065-1, U14362/24/1 | GW-441756 | GW441756] ?
Output: 2.086

Task: Which CMK %inh value is on record for Nc1c(C(=O)c2cccc(OCCN3CCOCC3)c2)cnn1-c1ccc(F)cc1 [SJ000581103-1] ?
Output: 0.9343

Now, please, on to the next compound.
Task: Which CMK %inh value is on record for CC1=C(C(=O)Nc2ccc3[nH]ncc3c2)C(c2ccc(F)cc2)NC(=O)N1 (stereo not shown) [SJ000573212-1, SD203460-064A1] ?
Output: 22.73

---

tested on: CMK; assay: Secondary dose-response HTS, Cell Titer Glo; type: cell-based, human; conditions: Homo sapiens; secondary high-throughput screen; CMK; read-out: average effective concentration, CMK
outcome.measure: EC50 (nM)
Unit nM implied. Number only.

Below are worked cases with known answers.
Task: For CMK, provide EC50 of Cc1ccc2nc(NCCN)c3ncc(C)n3c2c1 please.
Output: 4700

Task: For CMK, provide EC50 of Cc1cnc(NC(=O)Nc2cc(Br)c(C)cc2OC[C@@H]2CNCCO2)cn1 please.
Output: 450

Next:
Task: For CMK, provide EC50 of COCc1c(C(C)C)nc(C(C)C)c(/C=C/[C@@H](O)C[C@@H](O)CC(=O)O)c1-c1ccc(F)cc1 please.
Output: 160

Task: For CMK, provide EC50 of Cn1c(=O)n(-c2ccc(C(C)(C)C#N)cc2)c2c3cc(-c4cnc5ccccc5c4)ccc3ncc21 please.
Output: 66

Task: For CMK, provide EC50 of Nc1nc2nc[nH]c2c(=S)[nH]1 please.
Output: 3800

---

test system: CMS; design: species or system AML cell lines (8); Primary HTS, single concentration about 10 uM, Cell Titer Glo viability; log10 luminescence, per cent inhibition relative to cycloheximide control; details: 72 h, relative to cycloheximide control, log10 luminescence; inhibitor
outcome.measure: CMS %inh (%)
Unit % implied. Number only.

Below are worked cases with known answers.
Task: Which CMS %inh value is on record for COc1ccc(CNC(=O)c2ccc(-c3cc(-c4nnc(C)o4)ccc3C)cc2)cc1 ?
Output: -0.9608

Task: Which CMS %inh value is on record for COc1ccc(-c2cc3c(N)ncnc3o2)cc1 ?
Output: 5.247

Task: Which CMS %inh value is on record for CCn1c(-c2nonc2N)nc2cnc(Oc3cccc(NC(=O)c4ccc(N(C)C)cc4)c3)cc21 ?
Output: 1.931

Next:
Task: Which CMS %inh value is on record for COc1cccc(C(=O)c2sc(Nc3ccc(N4CCN(C(C)C)CC4)cc3)nc2N)c1 ?
Output: 7.49

Task: Which CMS %inh value is on record for Cn1c(=O)c(Oc2cccc(F)c2)cc2cnc(NC3CCOCC3)nc21 ?
Output: 1.491

Task: Which CMS %inh value is on record for Cc1nnc(-c2cccc(-c3ccc(C(=O)NCC4CC4)cc3)c2)o1 ?
Output: -1.146

Task: Which CMS %inh value is on record for CCS(=O)(=O)c1ccc(OC)c(Nc2ncc(-c3cccc(OC)c3)o2)c1 ?
Output: -1.141

Task: Which CMS %inh value is on record for Nc1c(C(=O)c2cccc(OC[C@H](O)CO)c2)cnn1-c1ccc(F)cc1 ?
Output: 0.9092
